# Test system: hospital-acquired methicillin-resistant Staphylococcus aureus HA-MRSA (ATCC 33591)
# protocol: Minimum inhibitory concentration (MIC)
# Format: cell-based
# test.conditions: Table 6

compound	target.under.test	MIC HA-MRSA [µM]
CCCCCCCCCCC[N+](C)(C)CCC[N+](C)(CCC[N+](C)(C)CCCCCCCCCCC)CCC[N+](C)(C)CCCCCCCCCCC.[Br-].[Br-].[Br-].[I-] [sT-11,11,11,1]	hospital-acquired methicillin-resistant Staphylococcus aureus HA-MRSA (ATCC 33591)	0.5
C=CC[N+](CCC[N+](C)(C)CCCCCCCCCCCCCCCC)(CCC[N+](C)(C)CCCCCCCCCCCCCCCC)CCC[N+](C)(C)CCCCCCCCCCCCCCCC [sT-16,16,16,3A]	hospital-acquired methicillin-resistant Staphylococcus aureus HA-MRSA (ATCC 33591)	16
CCCCCCCCCCC[N+](C)(C)CCCN(CCC[N+](C)(C)CCCCCCCCCCC)CCC[N+](C)(C)CCCCCCCCCCC [sT-11,11,11,0]	hospital-acquired methicillin-resistant Staphylococcus aureus HA-MRSA (ATCC 33591)	0.5
CCCCCCCCCCCC[N+](C)(C)CCC[N+](CCC[N+](C)(C)CCCCCCCCCCCC)(CCC[N+](C)(C)CCCCCCCCCCCC)Cc1ccccc1 [sT-12,12,12,Bn]	hospital-acquired methicillin-resistant Staphylococcus aureus HA-MRSA (ATCC 33591)	0.5
CCCCCCCCCCCCCCCC[N+](C)(C)CCCN(CCC[N+](C)(C)CCCCCCCCCCCCCCCC)CCC[N+](C)(C)CCCCCCCCCCCCCCCC.[Br-].[Br-].[Br-] [sT-16,16,16,0]	hospital-acquired methicillin-resistant Staphylococcus aureus HA-MRSA (ATCC 33591)	16
CCCCCCCC[N+](C)(C)CCCN(CCC[N+](C)(C)CCCCCCCC)CCC[N+](C)(C)CCCCCCCC [sT-8,8,8,0]	hospital-acquired methicillin-resistant Staphylococcus aureus HA-MRSA (ATCC 33591)	32
C=CC[N+](CCC[N+](C)(C)CCCCCCCCCCCCCCCCCC)(CCC[N+](C)(C)CCCCCCCCCCCCCCCCCC)CCC[N+](C)(C)CCCCCCCCCCCCCCCCCC [sT-18,18,18,3A]	hospital-acquired methicillin-resistant Staphylococcus aureus HA-MRSA (ATCC 33591)	16
C=CC[N+](CCC[N+](C)(C)CCCCCCCCCCC)(CCC[N+](C)(C)CCCCCCCCCCC)CCC[N+](C)(C)CCCCCCCCCCC [sT-11,11,11,3A]	hospital-acquired methicillin-resistant Staphylococcus aureus HA-MRSA (ATCC 33591)	1
C=CC[N+](CCC[N+](C)(C)CCCCCCCCCCCCCC)(CCC[N+](C)(C)CCCCCCCCCCCCCC)CCC[N+](C)(C)CCCCCCCCCCCCCC [sT-14,14,14,3A]	hospital-acquired methicillin-resistant Staphylococcus aureus HA-MRSA (ATCC 33591)	2
C=CC[N+](CCC[N+](C)(C)CCCCCCCCCC)(CCC[N+](C)(C)CCCCCCCCCC)CCC[N+](C)(C)CCCCCCCCCC [sT-10,10,10,3A]	hospital-acquired methicillin-resistant Staphylococcus aureus HA-MRSA (ATCC 33591)	0.5
CCCCCCCCCCCCC[N+](C)(C)CCC[N+](C)(CCC[N+](C)(C)CCCCCCCCCCCCC)CCC[N+](C)(C)CCCCCCCCCCCCC [sT-13,13,13,1]	hospital-acquired methicillin-resistant Staphylococcus aureus HA-MRSA (ATCC 33591)	1
CCCCCCCCCC[N+](C)(C)CCC[N+](C)(CCC[N+](C)(C)CCCCCCCCCC)CCC[N+](C)(C)CCCCCCCCCC [sT-10,10,10,1]	hospital-acquired methicillin-resistant Staphylococcus aureus HA-MRSA (ATCC 33591)	0.5
